Test system: A549/ATCC NSCLC
experiment.summary: NCI-60 one-dose screen, 48 h (100 = growth as untreated, 0 = no growth, -100 = all killed)
condition.set: 10 µM unless noted
The panel holds about 83,000 compounds, 20% with a hit somewhere; the sample as a whole holds those more often. The source made the active and inactive calls. How the source made its calls: active means growth percent below 10; inactive means the rest.
Assign growth to each entry below.

For O=C(C[n+]1ccn(CC(OCc2ccc(Cl)cc2Cl)c2ccc(Cl)cc2Cl)c1)c1ccc(F)cc1 (stereo not given) , what is its reported growth?
29.9% (inactive)

For `COc1ccc(C=C2c3ccccc3-c3ccccc32)cc1` , what is its reported growth?
52.2% (inactive)

For `O=C(CCCSc1nc(-c2ccccc2)cc(-c2ccccc2)n1)NO` , what is its reported growth?
-1.91% (active)

For CCN(CC)CCSC(=O)C(O)(c1ccccc1)C1CCCC1 (stereo not given) , what is its reported growth?
85.2% (inactive)

For `C#C[C@]1(O)CC[C@H]2[C@@H]3CC=C4c5nc(Nc6ccc(OC)cc6OC)sc5CC[C@]4(C)[C@H]3CC[C@@]21C` , what is its reported growth?
9.68% (active)

For `Cc1cccc(/C=C2\N=C(c3ccccc3)N(c3ccc(S(N)(=O)=O)cc3)C2=O)c1` , what is its reported growth?
75.7% (inactive)

For `Cc1cccc(C[C@H](NC(=O)Nc2ccc(Cl)cc2F)C(=O)N[C@@H]2C(=O)N3C[C@H](O)C[C@H]3C(=O)N3CCCC[C@H]3C(=O)N[C@@H](C)C(=O)N3C[C@H](C)C[C@H]3C(=O)O[C@H]2C)c1` , what is its reported growth?
17.9% (inactive)

For `O=C(O)c1ccccc1C(F)(F)F` , what is its reported growth?
16.1% (inactive)

For `O=C(Oc1ccc(Cl)cc1[N+](=O)[O-])Oc1ccc(Cl)cc1[N+](=O)[O-]` , what is its reported growth?
99.2% (inactive)

For `COCCCNc1nc(NC(=O)c2cc(OC)cc(OC)c2)cc(-c2cccnc2)n1` , what is its reported growth?
91.2% (inactive)

For `COC(=O)[C@@H](NC(=O)NC(=O)NC(=O)CI)C(C)C` , what is its reported growth?
94.6% (inactive)

For `Cc1ccc(-c2cn(C/C=C3\C=CN(S(=O)(=O)c4ccccc4)CC3)nn2)cc1` , what is its reported growth?
104% (inactive)

For `O=c1c2c3c(sc2n2cnnc2n1Cc1ccccc1)CCCC3` , what is its reported growth?
91.7% (inactive)

For `C=CCc1nc2ccccc2s1` , what is its reported growth?
103% (inactive)

For `Nc1ccc2c(c1)Cc1cc(NC(=O)C(F)(F)F)ccc1-2` , what is its reported growth?
93.6% (inactive)

For CC1Cc2c(ncnc2-n2cnc3ccccc32)N(C)c2ccccc21 (stereo not given) , what is its reported growth?
39.3% (inactive)

For `COC(=O)c1cc2c(=O)[nH]cc3c2c(n1)CCC3` , what is its reported growth?
101% (inactive)

For `COc1ccc(-c2ccc(NNC(=O)c3ccc(F)cc3)nn2)cc1OC` , what is its reported growth?
72.4% (inactive)

For `C=C(C)[C@@H]1CC[C@]2(C(=O)NCCCN)CC[C@]3(C)[C@H](CC[C@@H]4[C@@]5(C)CC[C@H](O)C(C)(C)[C@@H]5CC[C@]43C)[C@@H]12` , what is its reported growth?
-4.7% [100 µM] (active)

For `CC(C)(C)OC(=O)N1C=C/C(=C\Cn2cc(-c3ccccc3)nn2)CC1` , what is its reported growth?
83.8% (inactive)

For `Cc1cc(-c2ccc(N=Nc3c(S(=O)(=O)O)cc4cc(S(=O)(=O)O)cc(N)c4c3O)c(C)c2)ccc1N=Nc1cc(S(=O)(=O)O)c2ccccc2c1O` , what is its reported growth?
97.2% (inactive)

For `Cc1ccc(NC(=S)/N=c2/n(-c3ccccc3)nc3n2CCN3C2=NCCN2)cc1` , what is its reported growth?
106% (inactive)

For Cc1ccc2c(c1)C(C)Cc1c(Cl)ncnc1N2C (stereo not given) , what is its reported growth?
16.4% (inactive)

For `CCn1cc(-c2ccnc(NCCNS(=O)(=O)c3ccc(Br)cc3)c2)c(-c2cccc(OC)c2)n1` , what is its reported growth?
62.4% (inactive)

For COc1ccc(CC(C#N)c2ccc(Cl)cc2)cc1 (stereo not given) , what is its reported growth?
79.1% (inactive)

For `C=C(C)[C@@H]1CC[C@]2(C(=O)OC)CC[C@]3(C)[C@H](CC[C@@H]4[C@@](C)(CCc5nn[nH]n5)[C@H](C(=C)C)CC[C@]43C)[C@@H]12` , what is its reported growth?
2.03% [100 µM] (active)

For `CC1=CC[C@@H]2C(C)(C)[C@@H](O)CC[C@@]2(C)[C@@H]1COc1ccc2ccc(=O)oc2c1` , what is its reported growth?
43% (inactive)

For `FC(F)(F)c1ccc2c(c1)Sc1ccccc1N2` , what is its reported growth?
95.4% (inactive)

For `O=C1C(Cl)=C(Nc2ccc3cn[nH]c3c2)C(=O)c2ccccc21` , what is its reported growth?
39.7% (inactive)

For `COc1ccc(NCc2cn(-c3ccc(C(=O)O)cc3)nc2-c2ccc(C(=O)O)cc2)cc1C(F)(F)F` , what is its reported growth?
99.8% (inactive)

For `Cc1ccc(N)c(O)c1` , what is its reported growth?
85.4% (inactive)

For `COc1ccc(C(=O)CCC(=O)O)cc1` , what is its reported growth?
93.2% (inactive)

For `Cn1ncc2c(Nc3ccc(O)cc3)nc(Cl)nc21` , what is its reported growth?
96% (inactive)

For `COc1ccc(-c2cc(-c3ccc(Cl)cc3)nc(NCCCCNc3ccnc4cc(Cl)ccc34)n2)cc1` , what is its reported growth?
91.8% (inactive)

For `O=S(=O)(/N=c1/n(-c2ccccc2)nc2n1CCN2C1=NCCN1)c1ccc(-c2ccccc2)cc1` , what is its reported growth?
90.1% (inactive)

For `Ic1ccc2[nH]cc(SSc3c[nH]c4ccc(I)cc34)c2c1` , what is its reported growth?
21.8% (inactive)

For `Cc1ccc(S(=O)(=O)Nc2ccccc2)cc1N` , what is its reported growth?
81.3% (inactive)

For `COc1ccc(/C=C/C=C\C(=O)c2ccc(-n3ccnc3)cc2)cc1` , what is its reported growth?
81.9% (inactive)

For `CC1(C)CC[C@]2(C(N)=O)CC[C@]3(C)C(=CC[C@@H]4[C@@]5(C)C/C(=C/c6cccnc6)C(=O)C(C)(C)[C@@H]5CC[C@]43C)[C@@H]2C1` , what is its reported growth?
-35.9% [100 µM] (active)

For `COc1ccc(/C=C2\N=C(Nc3ccccc3)N(NC(=O)c3ccccn3)C2=O)cc1` , what is its reported growth?
99.1% (inactive)
